Please respond with reported rNPFF2 IA for every item in the list.
- target.or.system: rat NPFF2 receptor (Rattus norvegicus, UniProt Q9EQD2)
- Construct: The full-length NPFF2 was amplified from rat spinal cord cDNA; expressed in transfected cells; host or cells: not given
- Sequence (Q9EQD2 whole entry): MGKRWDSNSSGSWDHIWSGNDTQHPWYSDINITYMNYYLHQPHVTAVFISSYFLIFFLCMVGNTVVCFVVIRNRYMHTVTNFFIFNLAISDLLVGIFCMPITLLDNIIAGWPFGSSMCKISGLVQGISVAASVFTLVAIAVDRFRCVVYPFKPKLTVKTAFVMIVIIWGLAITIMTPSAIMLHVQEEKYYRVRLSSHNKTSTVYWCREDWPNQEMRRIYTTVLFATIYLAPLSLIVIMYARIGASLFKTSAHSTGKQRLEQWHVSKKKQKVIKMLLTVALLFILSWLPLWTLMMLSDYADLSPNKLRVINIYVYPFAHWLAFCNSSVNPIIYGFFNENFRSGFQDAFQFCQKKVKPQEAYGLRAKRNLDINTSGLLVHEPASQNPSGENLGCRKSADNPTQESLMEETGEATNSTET
- protocol.details: Functional assay (agonist potency, intrinsic activity) at cloned rat NPFF2 receptor
- Type: cell-based
- run.parameters: Table 7, intrinsic activity
Please respond with the number in % NPFF and leave the unit unwritten.

Fill blank: measured rNPFF2 IA of the compound CCC(C)c1ccc2nc(NC(=N)N)nc(C)c2c1 (stereo not shown) [Compound 2002A] is ____.
92

Endpoint output: rNPFF2 IA of CCCCCOc1ccc2nc(NC(=N)N)nc(C)c2c1 [Compound 1031A] . Value?
66

So what's the measured rNPFF2 IA for this one? Cc1cc(C)c2c(C)cc(NC(=N)N)nc2c1 [Compound 4008A]
65

Reported rNPFF2 IA for Cc1ccc2c(C)cc(NC(=N)N)nc2c1 [Compound 4006A, N-(4,7-dimethyl-2-quinolinyl)guanidine] : what is it?
32

// lookup rNPFF2 IA for CCCCCCc1ccc2nc(NC(=N)N)cc(C)c2c1 [Compound 5003A]
57

Quick one: rNPFF2 IA for Cc1nc(NC(=N)N)nc2cc3c(cc12)CCC3 [Compound 1038A] ?
74

Which rNPFF2 IA value belongs to CCCCCCCc1ccc2nc(NC(=N)N)nc(C)c2c1 [Compound 2006A] ?
47

Consider the compound Cc1nc(NC(=N)N)nc2ccc(C3CCCCC3)cc12 [Compound 1029A] and give its measured rNPFF2 IA.
31

What rNPFF2 IA value was documented for this compound, Cc1cc(NC(=N)N)nc2ccc(Cl)cc12 [Compound 4005A] ?
61

Quick one: rNPFF2 IA for COc1ccc2nc(NC(=N)N)cc(C)c2c1 [Compound 4004A] ?
65
